All values here come from ChEMBL document CHEMBL4308859.

Entries and their Kp values follow.
assay: Brain to plasma partition coefficient, Kp of the compound in Sprague-Dawley rat at 0.2 mg/kg, iv administered as cassette dose by LC-MS/MS analysis; format: ADME, organism-based; details: brain and plasma

{"molecule": "NC(=O)c1cc(-c2ccc(F)cc2F)n2nc(COc3ccnc(C(F)(F)F)c3)cc2n1", "Kp": "2.5 to 2.7"}
{"molecule": "COc1ccc(-c2cc(C(N)=O)nc3cc(COc4ccnc(C)c4)nn23)c(F)c1", "Kp": "2.5 to 2.7"}
{"molecule": "NC(=O)c1cc(-c2ccc(F)cc2)c2sc(COc3ccc(F)nc3)cc2n1", "Kp": "> 2"}
{"molecule": "NC(=O)c1cc(-c2ccc(F)cc2)n2nc(COc3ccnc(Br)c3)cc2n1", "Kp": "2.5 to 2.7"}
{"molecule": "NC(=O)c1cc(-c2ccc(F)cc2)c2sc(COc3ccc(Cl)nc3)cc2n1", "Kp": "> 2"}
{"molecule": "Cc1ncccc1OCc1cc2nc(C(N)=O)cc(-c3ccc(F)cc3)c2s1", "Kp": "> 2"}
